Where do these numbers come from? They come from ChEMBL document CHEMBL1255568.

Target: Protein-S-isoprenylcysteine O-methyltransferase (Homo sapiens)
Sequence (O60725 whole entry): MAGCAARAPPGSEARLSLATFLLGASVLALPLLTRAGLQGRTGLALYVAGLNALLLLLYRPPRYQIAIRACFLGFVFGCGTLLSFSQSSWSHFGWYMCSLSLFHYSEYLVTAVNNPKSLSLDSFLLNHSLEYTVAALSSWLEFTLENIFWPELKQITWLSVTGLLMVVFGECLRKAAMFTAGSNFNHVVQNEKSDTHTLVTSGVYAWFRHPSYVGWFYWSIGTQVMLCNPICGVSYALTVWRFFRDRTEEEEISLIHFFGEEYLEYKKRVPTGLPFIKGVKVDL
Assay: Inhibition of recombinant ICMT expressed in Sf9 cells using [3H] AdoMet after 20 mins by scintillation counting
pIC50: −log10 of the molar value.
PROPERTY: pIC50

Reference set (2 entries):
SAMPLE_SMILES: CCCCCCCCn1cc(CC(N)=O)c2cc(-c3ccccc3C)ccc21
PROPERTY: pIC50
REPORTED_MEASUREMENT: 6.00

SAMPLE_SMILES: CCCCCCCCn1cc(CC(=O)N(C)C)c2cc(-c3cccc(C)c3)ccc21
PROPERTY: pIC50
REPORTED_MEASUREMENT: 5.82

A. CCCCCCCCn1cc(CNS(C)(=O)=O)c2cc(-c3cccc(C)c3)ccc21
B. CCCCCCCCn1cc(CC(=O)OC)c2cc(-c3cccc(C)c3)ccc21
IN: When their pIC50 values are compared, which is larger, A or B ? Indicate your choice by writing its label.
OUT: A
(A: 5.92, B: 4.12)
